The values you see were collected from ChEMBL document CHEMBL1157172.

- ASSAY DETAILS: Acute toxicity in ip dosed BALB/c mouse after 30 days
- Type: organism-based
- RUN PARAMETERS: BALB/c, in vivo
RECORDED METRIC: LD50 at 720 h (mg/kg)
Please reply with the bare figure in mg/kg and do not write the unit itself.

MOLECULE | READOUT UNITS | LD50 at 720 h
O=C(O)CCCc1ccc(N(CCCl)CCCl)cc1 [CHLORAMBUCIL] | mg/kg | 24

Looking up CC(=O)N[C@H]1CC[C@H]2[C@@H]3C(=O)C=C4C[C@@H](OC(=O)CCCc5ccc(N(CCCl)CCCl)cc5)CC[C@]4(C)[C@H]3CC[C@]12C , I found its LD50 at 720 h recorded as 87

Looking up CC(=O)N[C@H]1CC[C@H]2[C@@H]3C(=O)C=C4C[C@@H](OC(=O)c5ccc(C)c(N(CCCl)CCCl)c5)CC[C@]4(C)[C@H]3CC[C@]12C , I found its LD50 at 720 h recorded as 600

Looking up CC(=O)N[C@H]1CC[C@H]2[C@@H]3NC(=O)C=C4C[C@@H](OC(=O)Cc5ccc(N(CCCl)CCCl)cc5)CC[C@]4(C)[C@H]3CC[C@]12C , I found its LD50 at 720 h recorded as 80
